Tested on: T-47D
Assay: NCI 60 cell line panel screen (SRB)
Assay type: cell-based, human
Settings: T-47D (Breast Cancer); TGI: PG=0
Assay readout: Log10TGI50

{"Compound": "CC1CCC2C(C)C(CC(COCC(=O)O)CC3OC4OC5(C)CCC6C(C)CCC(C3C)C46OO5)OC3OC4(C)CCC1C32OO4 (stereo not drawn) [Compound 12b, bis-trioxane O-acetic acid]", "Log10TGI50": ">−4.30 log10M"}
{"Compound": "C[C@@H]1CC[C@H]2[C@@H](C)C(=O)O[C@@H]3O[C@]4(C)CC[C@@H]1[C@]32OO4", "Log10TGI50": ">−4.00 log10M"}

Here is the next item to consider.
Which Log10TGI50 is reported for this compound? C[C@@H]1CC[C@H]2[C@@H](C)C(CC(O)(CC3OC4O[C@]5(C)CC[C@H]6[C@H](C)CC[C@@H]([C@H]3C)C46OO5)c3ccc(C(=O)O)cc3)OC3O[C@]4(C)CCC1C32OO4 (stereo partly drawn) [Compound 11b]
>−4.30 log10M
